This collection of values is drawn from patent US20240277631A1.

- tested on: CYP2C9 (Homo sapiens)
- Sequence (P11712 whole entry): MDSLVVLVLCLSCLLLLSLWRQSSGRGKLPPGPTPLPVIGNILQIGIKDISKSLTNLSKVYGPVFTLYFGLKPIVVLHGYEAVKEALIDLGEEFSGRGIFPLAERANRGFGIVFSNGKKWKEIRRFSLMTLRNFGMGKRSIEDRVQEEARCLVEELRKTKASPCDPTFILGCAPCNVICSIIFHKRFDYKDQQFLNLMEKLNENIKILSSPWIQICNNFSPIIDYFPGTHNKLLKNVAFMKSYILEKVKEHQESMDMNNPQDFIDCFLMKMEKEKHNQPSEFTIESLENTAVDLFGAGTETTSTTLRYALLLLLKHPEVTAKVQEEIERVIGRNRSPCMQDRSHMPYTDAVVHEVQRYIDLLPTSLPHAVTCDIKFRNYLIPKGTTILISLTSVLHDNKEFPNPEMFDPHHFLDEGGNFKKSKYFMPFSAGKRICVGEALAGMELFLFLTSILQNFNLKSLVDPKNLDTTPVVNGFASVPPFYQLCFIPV
- experiment notes: stability with recombinant CYP2C9
- Assay type: in vitro ADME
- test parameters: human; recombinant CYP2C9, intrinsic clearance; read-out: Recombinant CYP CLINT
value kind: microsomal CLint at 1 μM

Lab note: CYP2C9 (Homo sapiens) assay, enter microsomal CLint at 1 μM for CCC(=O)N(C)c1ccc(Cl)c(Cl)c1 [ELP-004] here < 0.154 µL/min/mg
